# assay.explanation: Circular dichroism (CD) test
# Assay type: physicochemical
# experimental.context: wavelength range 190-250 nm; 0.2 mg/ml protein

>  <molecule>
mFadA: cleaved mature form of FadA, 111 aa residues without the signal peptide (protein) ATDAASLVGELQALDAEYQNLANQEEARFNEERAQADAARQALAQNEQVYNELSQRAQRLQAEANTRFYKSQYQELASKYEDALKKLEAEMEQQKAVISDFEKIQALRAGN

>  <β strand (%)>
18.8

$$$$
>  <molecule>
S71A (protein) chain 1: MKKFLLLAVLAVSASAFAATDAASLVGELQALDAEYQNLANQEEARFNEERAQADAARQALAQNEQVYNELSQRAQRLQAEANTRFYKSQYQELASKYEDALKKLEAEMEQQKAVISDFEKIQALRAGN chain 2: ATDAASLVGELQALDAEYQNLANQEEARFNEERAQADAARQALAQNEQVYNELSQRAQRLQAEANTRFYKAQYQELASKYEDALKKLEAEMEQQKAVISDFEKIQALRAGN

>  <β strand (%)>
8

$$$$
>  <molecule>
FadAc: recombinant active heterogeneous complex of pre-FadA and mFadA (protein) chain 1: MKKFLLLAVLAVSASAFAATDAASLVGELQALDAEYQNLANQEEARFNEERAQADAARQALAQNEQVYNELSQRAQRLQAEANTRFYKSQYQELASKYEDALKKLEAEMEQQKAVISDFEKIQALRAGN chain 2: ATDAASLVGELQALDAEYQNLANQEEARFNEERAQADAARQALAQNEQVYNELSQRAQRLQAEANTRFYKSQYQELASKYEDALKKLEAEMEQQKAVISDFEKIQALRAGN

>  <β strand (%)>
9.6

$$$$
>  <molecule>
L14A (protein) ATDAASLVGELQAADAEYQNLANQEEARFNEERAQADAARQALAQNEQVYNELSQRAQRLQAEANTRFYKSQYQELASKYEDALKKLEAEMEQQKAVISDFEKIQALRAGN

>  <β strand (%)>
11.6

$$$$
